- target: HLA-C*01:02
- assayOverview: IEDB peptide-MHC binding, purified MHC/direct/fluorescence; filed as Kd, often an IC50 or EC50 that approximates it; bounds were set here for any values at or beyond the usual limits of such assays
- conditionsUsed: source organism: Homo sapiens
valueKind: Kd (nM)
Answers are plain numbers, in nM.

Q. Return reported Kd for target or system HLA-C*01:02, item `ELHDHGVSSL` .
A. 3.9

---

- target: HLA-A*02:03
- assayOverview: IEDB peptide-MHC binding, purified MHC/competitive/radioactivity; filed as Kd, often an IC50 or EC50 that approximates it; bounds were set here for any values at or beyond the usual limits of such assays
- conditionsUsed: source organism: Lymphocytic choriomeningitis virus (strain Armstrong)
Exercise: state measured Kd for each of the sequences provided.
Give bare numbers, in nM.

Sample answers from the record:
Q. Return Kd (reported value) for this sequence: `LSYSQTMLL`
A. 11300

Q. Answer with the recorded Kd of `LMDCIIFES` only.
A. 825

As a next step, examine the sequence that follows.
Q. Give Kd for `KCMSAALKNL`
A. 192

---

- target: HLA-B*07:02
- assayOverview: IEDB peptide-MHC binding, purified MHC/direct/fluorescence; filed as Kd, often an IC50 or EC50 that approximates it; bounds were set here for any values at or beyond the usual limits of such assays
- conditionsUsed: source organism: Cryptosporidium parvum
valueKind: Kd

Q. Given `IINAHRIPK` , respond with its Kd.
A. ≥ 20 µM

---

Please go through the items and note down their Kd.
- target: HLA-A*03:01
- assayOverview: IEDB peptide-MHC binding, purified MHC/direct/fluorescence; filed as Kd, often an IC50 or EC50 that approximates it; bounds were set here for any values at or beyond the usual limits of such assays
- conditionsUsed: source organism: Camelpox virus M-96

Q. Retrieve Kd measured for `GLYRLNFRR` and print it.
A. 242 nM

Could you now consider this next sequence?
Q. Specify reported Kd for the sequence shown: `FTENGPWMY`
A. ≥ 20000 nM

---

- target: HLA-B*53:01
- assayOverview: IEDB peptide-MHC binding, purified MHC/competitive/fluorescence; bounds were set here for any values at or beyond the usual limits of such assays
- conditionsUsed: source organism: Homo sapiens
valueKind: pIC50
One number for each entry, as −log10 of the molar value.

Q. Identify the reported pIC50 for the following entry. `LPSCPTNFCIF`
A. 6.07

---

- target: HLA-B*27:03
- assayOverview: IEDB peptide-MHC binding, purified MHC/direct/fluorescence; filed as Kd, often an IC50 or EC50 that approximates it; bounds were set here for any values at or beyond the usual limits of such assays
- conditionsUsed: source organism: Campylobacter jejuni subsp. jejuni 81116
valueKind: Kd

Q. Recall the reported Kd of `YTNYPFLFF` on HLA-B*27:03 and write it down.
A. ≥ 20 µM

---

- target: HLA-B*08:03
- assayOverview: IEDB peptide-MHC binding, purified MHC/direct/fluorescence; filed as Kd, often an IC50 or EC50 that approximates it; bounds were set here for any values at or beyond the usual limits of such assays
- conditionsUsed: source organism: Brucella suis 1330
pKd: −log10 of the molar value.
valueKind: pKd

Q. GET pKd | system: HLA-B*08:03 | item: `YWMGGTTYF`
A. ≤ 4.70

---

- target: HLA-A*29:02
- assayOverview: IEDB peptide-MHC binding, purified MHC/competitive/radioactivity; filed as Kd, often an IC50 or EC50 that approximates it; bounds were set here for any values at or beyond the usual limits of such assays
- conditionsUsed: source organism: Mammarenavirus machupoense
pKd: −log10 of the molar value.
valueKind: pKd

Q. Please indicate recorded pKd of `LSSGEPHCA` measured with HLA-A*29:02.
A. ≤ 4.10
